Biological target: Follistatin (Homo sapiens) (UniProt P19883)
Sequence (P19883 whole entry, looked up): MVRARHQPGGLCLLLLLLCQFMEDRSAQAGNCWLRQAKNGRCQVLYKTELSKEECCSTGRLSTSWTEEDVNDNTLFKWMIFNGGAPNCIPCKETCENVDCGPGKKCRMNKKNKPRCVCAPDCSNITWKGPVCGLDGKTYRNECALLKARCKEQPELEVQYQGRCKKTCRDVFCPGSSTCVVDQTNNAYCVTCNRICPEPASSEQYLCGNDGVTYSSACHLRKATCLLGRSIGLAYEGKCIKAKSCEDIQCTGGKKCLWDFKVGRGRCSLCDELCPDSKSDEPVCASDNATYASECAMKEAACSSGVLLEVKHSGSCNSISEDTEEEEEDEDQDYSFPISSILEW
Test: follistatin binders on small-molecule microarrays, primary screen, biochemical, small-molecule microarray, 635/667 nm fluorescence (AID 1132)
Conditions: FST binding, 635 nm fluorescence, higher = more signal
quantity_measured: composite z-score

Could you tell me which composite z-score is on file for `CCOC(=O)NN=C1C[C@@H](O)[C@@H](O)[C@@H]2[C@@H]3C(=O)N(CC)C(=O)[C@@H]3CC[C@H]12` ? -0.408

Could you tell me which composite z-score is on file for `COC(=O)[C@H](Cc1ccccc1)NC(=O)[C@@H](C)CO` ? 1.28

Could you tell me which composite z-score is on file for `CO[C@@H](C1CCCCC1)[C@@H](C)[C@H](OCc1cccc(Br)c1)[C@@H](C)CO` ? 0.265

Could you tell me which composite z-score is on file for `COC(=O)[C@@H]1CC[C@H](C)[C@@H](c2ccc(C)cc2)N1C(=O)c1ccc(C=NOC[C@H]2O[C@H](c3ccccc3)C=C[C@@H]2Oc2ccc(OC)cc2)cc1` ? 0.222

Could you tell me which composite z-score is on file for `COc1ccc(COC(=O)NN=C2C[C@@H](O)[C@@H](O)[C@@H]3[C@@H]4C(=O)N(C[C@@H]5CCCO5)C(=O)[C@@H]4CC[C@H]23)cc1` ? -1.13
